- Test description: LDH release from Gin-1 cells as index of cytotoxicity
- Format: cell-based, human
- Experimental setup: human, 1.0 mM, % of total LDH released by 0.4% Triton X, mean ± SEM
- Protocol: Two different cell types, human gingival fibroblasts (Gin-1) and bovine aortic endothelial cells (CPA ATCl CCL207) were obtained from the American Type Culture Collection. […] Lactic dehydrogenase (LDH) release was determined in several in vitro preparations as an index of cytotoxicity. using Sigma Diagnostic Kit #500. LDH release was expressed as a percentage of total LDH activity released from cells treated with 0.4% Triton X [Cabaud, P. G., Wroblewski, F. Am. […]
Metric name: cytotoxicity at 24 h, 1000 µM (%)

INSERT INTO assay_data (structure_smiles_string, metric_name, unit_abbreviation, data_value) VALUES
  ('O=C(NCCN1CCNC1=O)Nc1ccccc1', 'cytotoxicity at 24 h, 1000 µM', '%', 8);

====

- Test description: LDH release from Gin-1 cells as index of cytotoxicity
- Format: cell-based, human
- Experimental setup: human, 0.125 mM, % of total LDH released by 0.4% Triton X, mean ± SEM
Metric name: cytotoxicity at 24 h, 125 µM (%)

INSERT INTO assay_data (structure_smiles_string, metric_name, data_value) VALUES
  ('O=C(NCCN1CCNC1=O)Nc1ccccc1', 'cytotoxicity at 24 h, 125 µM', 7);
